Assay: Hit confirmation in dose-response curve in HepG2 cytotoxicity assay, at 72h
Assay type: toxicity, cell-based
Design: timepoint 72 hour
Conditions: human, HepG2 cells
measurement-label: IC50 at 72 h

1) O=S(=O)(Nc1ccc(O)c2cccnc12)N1CCCC1    > 10 µM

(Q) Supply IC50 at 72 h value. Item: `CCNC(=O)N1CC[C@H](Oc2ccc3ccccc3n2)C1`
(A) > 10 µM

(Q) Supply IC50 at 72 h value. Item: `Cc1ccc2nc(-c3cc4ccccc4o3)cn2c1`
(A) > 10 µM

(Q) Supply IC50 at 72 h value. Item: `CCCn1ccnc1-c1cn(Cc2cc3ccccc3[nH]2)nn1`
(A) > 10 µM

(Q) Supply IC50 at 72 h value. Item: `COc1ccccc1N(Cc1ccccc1)C1=NC(=[N+](Cc2ccccc2)c2ccccc2OC)c2ccccc21`
(A) > 10 µM

(Q) Supply IC50 at 72 h value. Item: `CC1CCN(c2nccnc2Oc2ccc(C(=O)NCc3ccccc3Cl)cc2)CC1`
(A) > 10 µM

(Q) Supply IC50 at 72 h value. Item: COc1ccc(CNCCC2C(C)CN(C)C(C)C2Cc2ccccc2)cc1 (stereo unspecified)
(A) > 10 µM

(Q) Supply IC50 at 72 h value. Item: `CNc1nc(NCc2ccccc2)nc2ccccc12`
(A) > 10 µM
